# Test system: Wolbachia pipientis
# experiment: Anti-Wolbachia Cell-Based Screen
# Format: functional
# Parameters: scale not given: in the data most compounds retested in dose-response had high values
# study_conditions: 5 µM
In all, about 48,000 compounds went through this assay and about 13,000 (27%) showed an effect of 50% or more. The list shows a part of the results.
measure: Percent Effect (%)
Please state the figure in %; there is no need to write the unit.

| molecule | Percent Effect [%] |
| --- | --- |
| CCc1c(C)nc2cc(C3CCN(Cc4cccnc4)C3)nn2c1O (configuration not stated) | 85.92 |
| CSCc1ccc(CNCCCN2CCOCC2)o1 | 3.399 |
| CCC(NC(N)=O)c1ccccc1OCC(=O)N1CCCC1 (configuration not stated) | -5.34 |
| Cn1cc(CN2CCc3ncn(C)c3C2COCc2cccnc2)cn1 (configuration not stated) | -2.593 |
| CN1CCC(NC(=O)c2cc(C3CCCCC3)nc3ccccc23)CC1 | 113.5 |

# input Give reported Percent Effect value for NC(=O)c1cccc2nc([C@H]3CCN(Cc4ccccc4F)C3)[nH]c12
# output 1.754

# input State its Percent Effect for this molecule: CCc1c(C)nc2cc(C3CCN(Cc4ccccc4F)C3)nn2c1O (configuration not stated)
# output -15.15

# input Indicate the recorded Percent Effect value for this molecule: Cc1nc2cc(C3CCN(Cc4ccccc4F)C3)nn2c(O)c1C (configuration not stated)
# output 92.44

# input Using known records, supply Percent Effect for Cc1cc(CN2CCC(C3CCN(CCc4ccccc4)C3)CC2)[nH]n1 (configuration not stated)
# output -6.326

# input Identify measured Percent Effect associated with Cc1ccc(CNCCN2CCOCC2)o1
# output 131.7

# input Please give the documented Percent Effect of Cc1cc(CN2CCC(C3CCN(Cc4cccnc4)CC3)C2)[nH]n1 (configuration not stated)
# output -58.7

# input Specify measured Percent Effect for Cc1ccc(-c2c(C(=O)NC3CCN(C)CC3)csc2C)cc1 .
# output 4.532
